experiment: collision cross section of modified peptide (TIMS, N2, iRT-aligned); higher = larger / more extended gas-phase ion; details: charge state: 3; modification: Trimethyl (K)
readout: collision cross section (Å²)
Just the number in Å², nothing appended.

The measured collision cross section associated with PANEKATDDYHYEK [_PANEK(Trimethyl (K))ATDDYHYEK_] reads 499.05

The measured collision cross section associated with LEKTIDDLEEK [_LEK(Trimethyl (K))TIDDLEEK_] reads 468.63

The measured collision cross section associated with DAEAAEATAEGALKAEK [_DAEAAEATAEGALK(Trimethyl (K))AEK_] reads 535.87

The measured collision cross section associated with ANEKTESSSAQQVAVSR [_ANEK(Trimethyl (K))TESSSAQQVAVSR_] reads 495.46

The measured collision cross section associated with VFSIISSEKELK [_VFSIISSEK(Trimethyl (K))ELK_] reads 454.68

The measured collision cross section associated with FLQEFYQDDELGKK [_FLQEFYQDDELGK(Trimethyl (K))K_] reads 508.12

The measured collision cross section associated with IHVQSSSDSSDEPAEKR [_IHVQSSSDSSDEPAEK(Trimethyl (K))R_] reads 528.1

The measured collision cross section associated with ITESVAETAQTIKK [_ITESVAETAQTIK(Trimethyl (K))K_] reads 496.11

The measured collision cross section associated with KYEEIDNAPEER [_K(Trimethyl (K))YEEIDNAPEER_] reads 490.14

The measured collision cross section associated with PASGAGAGAGAGKR [_PASGAGAGAGAGK(Trimethyl (K))R_] reads 465.02

The measured collision cross section associated with IVEKYGYTHLSAGELLR [_IVEK(Trimethyl (K))YGYTHLSAGELLR_] reads 554.1

The measured collision cross section associated with SEASSEFAKK [_SEASSEFAK(Trimethyl (K))K_] reads 431.4

The measured collision cross section associated with ITLSKHQNVQLPR [_ITLSK(Trimethyl (K))HQNVQLPR_] reads 492.22

The measured collision cross section associated with ASDTSSETVFGKR [_ASDTSSETVFGK(Trimethyl (K))R_] reads 471.76

The measured collision cross section associated with VGEFSGANKEK [_VGEFSGANK(Trimethyl (K))EK_] reads 437.18

The measured collision cross section associated with VFIGNLNTLVVKKK [_VFIGNLNTLVVK(Trimethyl (K))KK_] reads 488.61

The measured collision cross section associated with TQDQISNIKYHEEFEK [_TQDQISNIK(Trimethyl (K))YHEEFEK_] reads 544.72

The measured collision cross section associated with SPSDSGYSYETIGKTTK [_SPSDSGYSYETIGK(Trimethyl (K))TTK_] reads 517.28

The measured collision cross section associated with SDSGKPYYYNSQTK [_SDSGK(Trimethyl (K))PYYYNSQTK_] reads 473.28

The measured collision cross section associated with ASEALLKQLK [_ASEALLK(Trimethyl (K))QLK_] reads 439.12

The measured collision cross section associated with LAEEENKAK [_LAEEENK(Trimethyl (K))AK_] reads 413.12
